# SYSTEM_NAME: T1, human transferrin receptor (human, UniProt P02786 89-760)
# T1 construct: also called huTfR; hTfR
# METHOD_SUMMARY: SPR off-rate
TEST_READOUT: koff (s⁻¹)
Answer with a number only, understood to be in s⁻¹.

Examples with their reported koff follow.
>  <BINDER>
clone 494 VH 0 (mu) / VL 2 (antibody, V domains shown) VH: EVQLQQSGAVLVKPGASVKLSCPASGFNIKDTYIHWVIQRPEQGLEWIGRIDPANGDTKCDPKFQVKATITADTSSNTAYLQLSSLTSEDTAVYFCVRDYLYPYYFDFWGQGTTLTVSS VL: KIVLTQSPGTLSLSPGERATLSCRASESVDTYVSWYQQKPGQAPRLLIYGASNRYTGVPDRFSGSGSGTDFTLTISRLEPEDFADYYCGQTYNYPLTFGQGTKLEI

>  <koff / s⁻¹>
0.000364

$$$$
>  <BINDER>
clone 494 VH 1 / VL 4 (antibody, V domains shown) VH: QVQLVQSGAEVKKPGASVKVSCKASGFNIKDTYIHWVIQAPGQGLEWMGRIDPANGDTKSDPKFQVRVTITADTSTSTVYMELSSLRSEDTAVYYCVRDYLYPYYFDFWGQGTTVTVSS VL: KIVLTQSPGTLSLSPGERATLSCRASESVDTYVSWYQQKPGQAPRLLIYGASNRYTGIPDRFSGSGSGTDFTLTISRLEPEDFADYYCGQTYNYPLTFGQGTKLEI

>  <koff / s⁻¹>
0.000657

$$$$
>  <BINDER>
clone 494 VH 2 / VL 4 (antibody, V domains shown) VH: QVQLVQSGAEVKKPGASVKVSCKASGFNIKDTYIHWVIQAPGQGLEWMGRIDPANGDTKSAPKFQVRVTITADTSTSTVYMELSSLRSEDTAVYYCVRDYLYPYYFDFWGQGTTVTVSS VL: KIVLTQSPGTLSLSPGERATLSCRASESVDTYVSWYQQKPGQAPRLLIYGASNRYTGIPDRFSGSGSGTDFTLTISRLEPEDFADYYCGQTYNYPLTFGQGTKLEI

>  <koff / s⁻¹>
0.000703

$$$$
>  <BINDER>
clone 494 VH 1 / VL 2 (antibody, V domains shown) VH: QVQLVQSGAEVKKPGASVKVSCKASGFNIKDTYIHWVIQAPGQGLEWMGRIDPANGDTKSDPKFQVRVTITADTSTSTVYMELSSLRSEDTAVYYCVRDYLYPYYFDFWGQGTTVTVSS VL: KIVLTQSPGTLSLSPGERATLSCRASESVDTYVSWYQQKPGQAPRLLIYGASNRYTGVPDRFSGSGSGTDFTLTISRLEPEDFADYYCGQTYNYPLTFGQGTKLEI

>  <koff / s⁻¹>
0.000399

$$$$
>  <BINDER>
clone 494 VH 3 / VL 4 (antibody, V domains shown) VH: QVQLVQSGAEVKKPGASVKVSCKASGFNIKDTYIHWVIQAPGQGLEWMGRIDPANGDTKSDPKFQGRVTITADTSTSTVYMELSSLRSEDTAVYYCVRDYLYPYYFDFWGQGTTVTVSS VL: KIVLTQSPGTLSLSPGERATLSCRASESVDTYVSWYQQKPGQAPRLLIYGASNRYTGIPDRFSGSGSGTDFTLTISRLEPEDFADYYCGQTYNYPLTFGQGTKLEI

>  <koff / s⁻¹>
0.000683

$$$$
>  <BINDER>
clone 494 VH 4 / VL 2 (antibody, V domains shown) VH: QVQLVQSGAEVKKPGSSVKVSCKASGFNIKDTYIHWVIQAPGQGLEWMGRIDPANGDTKSDPKFQGRVTITADESTSTAYMELSSLRSEDTAVYYCVRDYLYPYYFDFWGQGTTVTVSS VL: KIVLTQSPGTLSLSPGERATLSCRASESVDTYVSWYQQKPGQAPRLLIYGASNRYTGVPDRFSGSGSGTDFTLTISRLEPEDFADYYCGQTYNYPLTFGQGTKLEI

>  <koff / s⁻¹>
0.000438

$$$$
>  <BINDER>
clone 494 VH 2 / VL 1 (antibody, V domains shown) VH: QVQLVQSGAEVKKPGASVKVSCKASGFNIKDTYIHWVIQAPGQGLEWMGRIDPANGDTKSAPKFQVRVTITADTSTSTVYMELSSLRSEDTAVYYCVRDYLYPYYFDFWGQGTTVTVSS VL: KIQMTQSPSSLSASVGDRVTITCRASESVDTYVSWYQQKPGKAPKLLIYGASNRYTGVPSRFSGSGSGTDFTLTISSLQPEDFADYYCGQTYNYPLTFGQGTKLEI

>  <koff / s⁻¹>
0.000454

$$$$
>  <BINDER>
clone 494 VH 1 / VL 3 (antibody, V domains shown) VH: QVQLVQSGAEVKKPGASVKVSCKASGFNIKDTYIHWVIQAPGQGLEWMGRIDPANGDTKSDPKFQVRVTITADTSTSTVYMELSSLRSEDTAVYYCVRDYLYPYYFDFWGQGTTVTVSS VL: EIVLTQSPGTLSLSPGERATLSCRASESVDTYVSWYQQKPGQAPRLLIYGASNRYTGVPDRFSGSGSGTDFTLTISRLEPEDFADYYCGQTYNYPLTFGQGTKLEI

>  <koff / s⁻¹>
0.000386

$$$$

Assign koff to the following record: clone 494 VH 4 / VL 0 (mu) (antibody, V domains shown) VH: QVQLVQSGAEVKKPGSSVKVSCKASGFNIKDTYIHWVIQAPGQGLEWMGRIDPANGDTKSDPKFQGRVTITADESTSTAYMELSSLRSEDTAVYYCVRDYLYPYYFDFWGQGTTVTVSS VL: KIVMTQSPKSMSMSVGERVTLNCRASESVDTYVSWYQQKPEQSPELLIYGASNRYTGVPDRFTGSGSATDFTLTISSVQAEDLADYYCGQTYNYPLTFGAGTKLELKR 0.000177

Assign koff to the following record: clone 494 VH 2 / VL 0 (mu) (antibody, V domains shown) VH: QVQLVQSGAEVKKPGASVKVSCKASGFNIKDTYIHWVIQAPGQGLEWMGRIDPANGDTKSAPKFQVRVTITADTSTSTVYMELSSLRSEDTAVYYCVRDYLYPYYFDFWGQGTTVTVSS VL: KIVMTQSPKSMSMSVGERVTLNCRASESVDTYVSWYQQKPEQSPELLIYGASNRYTGVPDRFTGSGSATDFTLTISSVQAEDLADYYCGQTYNYPLTFGAGTKLELKR 0.000156

Data origin, for the record: patent EP4814018A2
